B1: FERM and PDZ domain-containing protein 4, residues 75 to 154; numbered along this chain, Q14CM0 (parent)
chain: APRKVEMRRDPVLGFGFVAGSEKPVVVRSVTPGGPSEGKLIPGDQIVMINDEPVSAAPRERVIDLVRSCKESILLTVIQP

Variants of: B1
Assay: abundance fitness (aPCA) (normalised: wild type 0, dead -1); higher = more abundant; growth selection in yeast, the domain comes from the species named
Conditions: Homo sapiens
# abundance fitness listing for each entry below
Could you keep your reply to the number by itself?

G33A -0.055
G43R -0.248
E52W -0.065
T31E -0.013
V27D -0.802

Input line: Give its abundance fitness value. Item: R61C
Output line: -0.065

Input line: Give its abundance fitness value. Item: G16C
Output line: -0.956
